Just for reference, PubChem BioAssay (NCI) is where these values come from.

growth values by entry
Tested on: MOLT-4 leukemia
Assay: NCI-60 one-dose screen, 48 h (100 = growth as untreated, 0 = no growth, -100 = all killed)
Conditions: 10 µM unless noted
This is part of a sample that, as a whole, favours compounds with a hit. Of some 83,000 tested, about 20% had one in any assay. Calls of active or inactive are those of the source. Rule for the calls: active = growth percent below 10; inactive = the rest.
Value kind: growth

> print(dat)
                            smiles.notation           observed.result
1  C=C1C(=O)O[C@H]2[C@H]1CC/C(CNC(=O)/C=C/c1ccccc1)=C\CC[C@@]1(C)O[C@@H]21           -26.4% (active)
2  Cc1ccc(NC(=O)c2cc(-c3nc4ccccc4s3)c(=O)n(NS(=O)(=O)c3ccc(Cl)cc3)c2N)cc1          97.9% (inactive)
3  Cc1cnc(C(=O)Nc2nc3ccc(S(=O)(=O)Nc4ccc(C5(C(F)(F)F)CC5)cc4)cc3[nH]2)cn1            20% (inactive)
4  COc1cc2c(cc1OC)C(=O)/C(=C/c1cc(C)c(O)c(C)c1)S2          24.5% (inactive)
5      NS(=O)(=O)c1ccc(CCN2C(=O)C=CC2=O)cc1          97.4% (inactive)
6  CC(=O)c1ccc(NS(=O)(=O)c2cccc(C(=O)Nc3ccc(Br)cc3)c2)cc1  53.7% [25 µM] (inactive)
7  C=C1C(=O)O[C@H]2[C@H]1CC/C(CNC(=O)c1cccc3ccccc13)=C\CC[C@@]1(C)O[C@@H]21             4.8% (active)
8   Cc1cc2nc3c4cccc(O)c4n(CCN(C)C)c3nc2cc1C            6.01% (active)
